Origin of values: patent EP1289507B1

- ASSAY PROCEDURE: Pharmacokinetics and tolerability in subjects with moderate hepatic impairment vs normal healthy subjects
- Assay type: in vivo, human subjects
- TEST PARAMETERS: human, in vivo, 400 mg, Multiple Dose, Normal; read-out: CL/F, Mean (converted)
MEASURED QUANTITY: CL/F (mL/min)
Hi! Could you send only the number? It should be in mL/min, unit omitted.

## Input I have this molecule here, COC(=O)[C@@H]1CC2=CC(=O)CC[C@]2(C)[C@@]23O[C@@H]2C[C@@]2(C)[C@@H](CC[C@@]24CCC(=O)O4)[C@H]13 [Eplerenone] , and I need its recorded CL/F.
## Output 230

====

- ASSAY PROCEDURE: Pharmacokinetics and absorption after IV and oral [14C]eplerenone in the rat
- Format: in vivo
- TEST PARAMETERS: rat, plasma, po, 15 mg/kg, systemic availability of total eplerenone, oral 15 mg/kg, male rat
MEASURED QUANTITY: bioavailability (%)
Hi! Could you send only the number? It should be in %, unit omitted.

## Input I have this molecule here, `COC(=O)[C@@H]1CC2=CC(=O)CC[C@]2(C)[C@@]23O[C@@H]2C[C@@]2(C)[C@@H](CC[C@@]24CCC(=O)O4)[C@H]13` , and I need its recorded bioavailability.
## Output 29.4

====

- ASSAY PROCEDURE: Pharmacokinetics and tolerability in subjects with moderate hepatic impairment vs normal healthy subjects
- Assay type: in vivo, human subjects
- TEST PARAMETERS: human, in vivo, 400 mg, Single Dose, Normal; read-out: CL/F, Mean (converted)
MEASURED QUANTITY: CL/F (mL/min)
Hi! Could you send only the number? It should be in mL/min, unit omitted.

## Input I have this molecule here, `COC(=O)[C@@H]1CC2=CC(=O)CC[C@]2(C)[C@@]23O[C@@H]2C[C@@]2(C)[C@@H](CC[C@@]24CCC(=O)O4)[C@H]13` , and I need its recorded CL/F.
## Output 254

====

- ASSAY PROCEDURE: Pharmacokinetics and tolerability in subjects with moderate hepatic impairment vs normal healthy subjects
- Type: in vivo, human subjects
- TEST PARAMETERS: human, in vivo, 400 mg, linear kinetics assessment, Normal; read-out: Multiple Dose AUC (0-24), Least Squares Mean
MEASURED QUANTITY: AUC tau at 24 h

## Input I have this molecule here, COC(=O)[C@@H]1CC2=CC(=O)CC[C@]2(C)[C@@]23O[C@@H]2C[C@@]2(C)[C@@H](CC[C@@]24CCC(=O)O4)[C@H]13 [Eplerenone] , and I need its recorded AUC tau at 24 h.
## Output 29300 ng·h/mL

====

- ASSAY PROCEDURE: Pharmacokinetics and tolerability in subjects with moderate hepatic impairment vs normal healthy subjects
- Format: in vivo, human subjects
- TEST PARAMETERS: human, in vivo, 400 mg, Multiple Dose, Normal; read-out: CL/F, Least Squares Mean (converted)
MEASURED QUANTITY: CL/F (mL/min)
Hi! Could you send only the number? It should be in mL/min, unit omitted.

## Input I have this compound here, `COC(=O)[C@@H]1CC2=CC(=O)CC[C@]2(C)[C@@]23O[C@@H]2C[C@@]2(C)[C@@H](CC[C@@]24CCC(=O)O4)[C@H]13` , and I need its recorded CL/F.
## Output 222
